# reported pIC50; entries follow
- Tested system: UniProtKB Q13547
- Sequence (Q13547 whole entry): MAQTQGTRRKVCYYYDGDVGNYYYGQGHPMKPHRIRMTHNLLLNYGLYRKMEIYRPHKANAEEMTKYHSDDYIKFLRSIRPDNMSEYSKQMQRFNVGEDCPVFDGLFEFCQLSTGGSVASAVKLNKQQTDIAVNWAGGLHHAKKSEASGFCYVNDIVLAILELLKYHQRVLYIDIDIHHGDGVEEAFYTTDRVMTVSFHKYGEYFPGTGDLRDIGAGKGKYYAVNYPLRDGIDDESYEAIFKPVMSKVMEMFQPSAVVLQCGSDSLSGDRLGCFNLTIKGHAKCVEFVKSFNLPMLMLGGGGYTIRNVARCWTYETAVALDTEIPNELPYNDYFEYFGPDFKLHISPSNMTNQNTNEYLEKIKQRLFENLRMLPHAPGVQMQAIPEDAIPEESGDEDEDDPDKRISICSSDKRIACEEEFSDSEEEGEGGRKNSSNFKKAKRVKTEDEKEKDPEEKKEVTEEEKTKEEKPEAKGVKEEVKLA
pIC50: −log10 of the molar value.

# Compound, Tested system, pIC50
measured = [
    ("CCC(=O)CCCCC[C@H](NC(=O)C12CCN(CC1)CC2)c1ncc(-c2cc3ccccc3nc2OC)o1 [Compound 41]", "UniProtKB Q13547", "> 7.00"),
    ("CCC(=O)CCCCC[C@H](NC(=O)Cc1cc2ncccn2n1)c1ncc(-c2cc3ccccc3nc2OC)o1 [Compound 89]", "UniProtKB Q13547", "> 7.00"),
    ("CCC(=O)CCCCC[C@H](NC(=O)C1CN(C)C1)c1ncc(-c2cc3ccccc3[nH]c2=O)o1 [Compound 44]", "UniProtKB Q13547", "> 7.00"),
    ("CCC(=O)CCCCC[C@H](NC(=O)C(C)(C)N(C)C)c1ncc(-c2cc3ccccc3nc2OC)o1 [Compound 35]", "UniProtKB Q13547", "> 7.00"),
    ("CCC(=O)CCCCC[C@H](NC(=O)C(=O)N(C)C)c1nnc(-c2cc3ccccc3nc2OC)o1 [Compound 45]", "UniProtKB Q13547", "> 7.00"),
    ("CCC(=O)CCCCC[C@H](NC(=O)[C@@H]1CSC(=O)N1)c1ncc(-c2ccccc2)o1 [Compound 13]", "UniProtKB Q13547", "> 7.00"),
    ("CCC(=O)CCCCC[C@H](NC(=O)Cc1c(C)[nH]c2ccc(OC)cc12)c1nnc(-c2cc3ccccc3nc2OC)o1 [Compound 48]", "UniProtKB Q13547", "> 7.00"),
    ("CCC(=O)CCCCC[C@H](NC(=O)C1(F)CN(C)C1)c1ncc(-c2cc3ccccc3nc2OC)o1 [Compound 67]", "UniProtKB Q13547", "> 7.00"),
    ("CCC(=O)CCCCC[C@H](NC(=O)Cn1nc(C)nc1C)c1ncc(-c2cc3ccccc3nc2OC)o1 [Compound 80]", "UniProtKB Q13547", "> 7.00"),
    ("CCC(=O)CCCCC[C@H](NC(=O)[C@@H]1CC(F)(F)CN1C)c1ncc(-c2cc3ccccc3nc2OC)o1 [Compound 58]", "UniProtKB Q13547", "> 7.00"),
    ("CCC(=O)CCCCC[C@H](NC(=O)[C@@H](CC(F)(F)F)N(C)C)c1ncc(-c2cc3ccccc3nc2OC)o1 [Compound 64]", "UniProtKB Q13547", "> 7.00"),
    ("CCC(=O)CCCCC[C@H](NC(=O)Cn1c(C)nc2ccccc21)c1ncc(-c2ccccc2)o1 [Compound 18]", "UniProtKB Q13547", "6.00 to 7.00"),
    ("CCC(=O)CCCCC[C@H](NC(=O)Cn1nc(C)cc1C)c1ncc(-c2cc3ccccc3nc2OC)o1 [Compound 81]", "UniProtKB Q13547", "> 7.00"),
    ("CCC(=O)CCCCC[C@H](NC(=O)Cc1ncccn1)c1ncc(-c2cc3ccccc3nc2OC)o1 [Compound 79]", "UniProtKB Q13547", "> 7.00"),
]

###

- System: human γ-globin promoter (EGFP reporter) in K562 cells
- Protocol description: HbF activation assay on K562 (EGFP/RFP reporter model system for screening of inducers of fetal hemoglobin)
- Format: cell-based
- Assay conditions: 60 hours
pEC50: −log10 of the molar value.

# Compound, pEC50
data = [
    ("CCC(=O)CCCCC[C@H](NC(=O)c1snnc1C)c1ncc(-c2cc3ccccc3nc2OC)o1", "< 6.00"),
    ("CCC(=O)CCCCC[C@H](NC(=O)[C@@H]1CSC(=O)N1)c1ncc(-c2ccccc2)o1", "< 6.00"),
    ("CCC(=O)CCCCC[C@H](NC(=O)C(C)n1cccn1)c1ncc(-c2cc3ccccc3nc2OC)o1 (some centres unmarked)", "< 6.00"),
    ("CCC(=O)CCCCC[C@H](NC(=O)C1CN(C)C1)c1ncc(-c2cc3ccccc3n(C)c2=O)o1", "6.00 to 7.00"),
    ("CCC(=O)CCCCC[C@H](NC(=O)C1CCN(C)CC1)c1ncc(-c2cccc3c2OCCO3)o1", "< 6.00"),
    ("CCC(=O)CCCCC[C@H](NC(=O)C(C)(C)N(C)C)c1ncc(-c2cc3ccccc3nc2OC)o1", "6.00 to 7.00"),
    ("CCC(=O)CCCCC[C@H](NC(=O)Cc1nonc1C)c1ncc(-c2cc3ccccc3nc2OC)o1", "< 6.00"),
    ("CCC(=O)CCCCC[C@H](NC(=O)C1(N(C)C)CCCC1)c1ncc(-c2cc3ccccc3n(C)c2=O)o1", "> 7.00"),
    ("CCC(=O)CCCCC[C@H](NC(=O)C1CN(C)C1)c1ncc(-c2ccccc2)o1", "< 6.00"),
    ("CCC(=O)CCCCC[C@H](NC(=O)c1cccnc1)c1ncc(-c2cc3ccccc3nc2OC)o1", "6.00 to 7.00"),
    ("CCC(=O)CCCCC[C@H](NC(=O)c1csnn1)c1ncc(-c2cc3ccccc3nc2OC)o1", "< 6.00"),
    ("CCC(=O)CCCCC[C@H](NC(=O)C12CCN(CC1)CC2)c1ncc(-c2cc3ccccc3nc2OC)o1", "< 6.00"),
    ("CCC(=O)CCCCC[C@H](NC(=O)C1CN(C)C1)c1ncc(-c2ccc(-c3ccnn3C)cc2)o1", "< 6.00"),
    ("CCC(=O)CCCCC[C@H](NC(=O)C1CCN(C)CC1)c1nnc(-c2cc3ccccc3nc2OC)o1", "6.00 to 7.00"),
    ("CCC(=O)CCCCC[C@H](NC(=O)C1(F)CN(C)C1)c1ncc(-c2cc3ccccc3nc2OC)o1", "< 6.00"),
    ("CCC(=O)CCCCC[C@H](NC(=O)[C@@H]1C[C@H](F)CN1C)c1ncc(-c2cc3ccccc3nc2OC)o1", "< 6.00"),
    ("CCC(=O)CCCCC[C@H](NC(=O)c1cnc(CN2CCCC2)s1)c1ncc(-c2cc3ccccc3nc2OC)o1", "6.00 to 7.00"),
    ("CCC(=O)CCCCC[C@H](NC(=O)C1CCN(C)CC1)c1ncc(-c2ccccc2)o1", "< 6.00"),
    ("CCC(=O)CCCCC[C@H](NC(=O)C1CCN1C)c1ncc(-c2cc3ccccc3nc2OC)o1 (some centres unmarked)", "< 6.00"),
    ("CCC(=O)CCCCC[C@H](NC(=O)C1CN(C)C1)c1nnc(-c2cc3ccccc3n(C)c2=O)o1", "< 6.00"),
    ("CCC(=O)CCCCC[C@H](NC(=O)C1CCCCCN1C)c1ncc(-c2ccccc2)o1 (some centres unmarked)", "< 6.00"),
    ("CCC(=O)CCCCC[C@H](NC(=O)Cn1ccnn1)c1ncc(-c2cc3ccccc3nc2OC)o1", "< 6.00"),
    ("CCC(=O)CCCCC[C@H](NC(=O)Cn1cc2ccccc2n1)c1ncc(-c2cc3ccccc3nc2OC)o1", "< 6.00"),
]
